TARGET SYSTEM: T1, Human in house BCMA (Homo sapiens, UniProt Q02223)
T1 construct: CD33 signal peptide (N); TEV site (internal); Fc (C); made in house
T1 sequence (Q02223 with tags, fused parts or gaps limits assumed): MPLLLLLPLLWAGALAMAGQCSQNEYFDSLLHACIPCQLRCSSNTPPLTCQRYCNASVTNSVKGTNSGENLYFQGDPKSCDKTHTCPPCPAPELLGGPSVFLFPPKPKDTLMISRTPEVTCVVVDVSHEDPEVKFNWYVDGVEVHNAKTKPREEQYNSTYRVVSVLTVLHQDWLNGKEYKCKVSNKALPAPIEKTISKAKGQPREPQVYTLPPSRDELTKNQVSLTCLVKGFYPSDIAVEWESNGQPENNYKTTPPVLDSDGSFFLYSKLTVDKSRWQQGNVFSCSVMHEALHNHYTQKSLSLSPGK
ASSAY EXPLANATION: ProteOn analysis of CA8 chimeric and humanised constructs, human in house BCMA
Type: binding
PARTICULARS: Run 1, Human in house BCMA, ProteOn, 25° C.; in s-1 (unit assumed)
OBSERVED PROPERTY: kd

molecule="CA8 humanised J2M2: humanised CA8 anti-BCMA antibody, VH J2 (SEQ ID NO:15) + VL M2 (SEQ ID NO:35) (antibody, V domains shown, Humansed antibody sequence) VH: QVQLVQSGAEVKKPGSSVKVSCKASGYTFTNYWMHWVRQAPGQGLEWMGATYRGHSDTYYNQKFKGRVTITADKSTSTAYMELSSLRSEDTAVYYCTRGAIYNGYDVLDNWGQGTLVTVSS VL: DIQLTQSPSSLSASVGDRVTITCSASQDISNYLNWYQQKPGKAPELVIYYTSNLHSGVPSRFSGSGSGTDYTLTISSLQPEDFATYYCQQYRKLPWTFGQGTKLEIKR" observed_property=kd reported_value=9.87E−05
molecule="CA8 humanised J2M1: humanised CA8 anti-BCMA antibody, VH J2 (SEQ ID NO:15) + VL M1 (SEQ ID NO:33) (antibody, V domains shown, Humansed antibody sequence) VH: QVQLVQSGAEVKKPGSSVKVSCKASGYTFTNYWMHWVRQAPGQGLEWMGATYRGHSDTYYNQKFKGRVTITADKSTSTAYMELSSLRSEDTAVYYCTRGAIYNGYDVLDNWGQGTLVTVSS VL: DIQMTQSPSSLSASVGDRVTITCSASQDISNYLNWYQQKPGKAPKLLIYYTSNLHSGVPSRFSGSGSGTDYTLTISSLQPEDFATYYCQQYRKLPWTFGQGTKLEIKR" observed_property=kd reported_value=1.72E−04
molecule="S307118G03 humanised H2L0: humanised S307118G03, VH H2 (SEQ ID NO:81) + VL L0 (SEQ ID NO:89) (antibody, V domains shown, Humansed antibody sequence) VH: QVQLVQSGAEVKKPGSSVKVSCKASGYTFTDYYMKWVRQAPGQGLEWMGEIYPNNGGITYNQKFKGRVTITADKSTSTAYMELSSLRSEDTAVYYCANGYEFVYWGQGTLVTVSS VL: DIQMTQSPSSLSASVGDRVTITCSASQGISNYLNWYQQKPGKAPKLLIYYTSSLHSGVPSRFSGSGSGTDFTLTISSLQPEDFATYYCQQYSKLPWTFGQGTKLEIKR" observed_property=kd reported_value=2.41E−03
molecule="CA8 humanised J1M1: humanised CA8 anti-BCMA antibody, VH J1 (SEQ ID NO:13) + VL M1 (SEQ ID NO:33) (antibody, V domains shown, Humansed antibody sequence) VH: QVQLVQSGAEVKKPGSSVKVSCKASGYTFTNYWMHWVRQAPGQGLEWMGATYRGHSDTYYNQKFKGRVTITADKSTSTAYMELSSLRSEDTAVYYCARGAIYNGYDVLDNWGQGTLVTVSS VL: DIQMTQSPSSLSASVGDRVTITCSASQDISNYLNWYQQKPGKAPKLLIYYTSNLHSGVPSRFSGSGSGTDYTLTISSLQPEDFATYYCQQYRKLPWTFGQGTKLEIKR" observed_property=kd reported_value=3.43E−04
molecule="CA8 humanised J0M1: humanised CA8 anti-BCMA antibody, VH J0 (SEQ ID NO:11) + VL M1 (SEQ ID NO:33) (antibody, V domains shown, Humansed antibody sequence) VH: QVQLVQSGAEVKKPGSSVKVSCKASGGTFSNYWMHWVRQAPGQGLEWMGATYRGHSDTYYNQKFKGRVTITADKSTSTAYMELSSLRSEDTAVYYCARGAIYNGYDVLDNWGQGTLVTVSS VL: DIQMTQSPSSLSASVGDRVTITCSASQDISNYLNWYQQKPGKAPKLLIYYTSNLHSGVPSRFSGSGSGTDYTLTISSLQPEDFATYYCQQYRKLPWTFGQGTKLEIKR" observed_property=kd reported_value=8.60E−05

These measurements were taken from patent US11419945B2.
